experimentalSystem: human recombinant 5-HT2C receptor (Homo sapiens, UniProt P28335)
Construct: expressed in transfected cells; host or cells: Jump-In HEK cells (membrane preparation)
Sequence (P28335 33-458): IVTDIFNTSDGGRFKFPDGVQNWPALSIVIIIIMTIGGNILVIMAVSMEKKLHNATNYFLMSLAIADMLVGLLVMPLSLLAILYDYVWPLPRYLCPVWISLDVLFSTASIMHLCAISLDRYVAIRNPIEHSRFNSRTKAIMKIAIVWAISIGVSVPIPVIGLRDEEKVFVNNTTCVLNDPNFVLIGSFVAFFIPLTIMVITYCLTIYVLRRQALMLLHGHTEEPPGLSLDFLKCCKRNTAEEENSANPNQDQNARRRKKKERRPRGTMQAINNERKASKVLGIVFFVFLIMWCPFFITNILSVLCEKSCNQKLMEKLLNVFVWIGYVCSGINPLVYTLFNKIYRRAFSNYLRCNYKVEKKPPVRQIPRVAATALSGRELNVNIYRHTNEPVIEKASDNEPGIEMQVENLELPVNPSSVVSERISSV
protocolDetails: Test Example 2: 5-HT2C receptor binding inhibition test ([3H]-Mesulergine; non-specific ligand Serotonin HCl)
testParameters: human serotonin 5-HT2C receptor binding activity
pKi: −log10 of the molar value.
propertyName: pKi

In [3]: df
Out[3]:
                                    molecule  propertyname  numericresult
 0  COCc1nc(C)c(-c2cc(Nc3ncc(-c4ccc(C#N)c(F)c4)cc3Cl)ncc2OCCO)c(C)n1           pKi           9.33
 1  Cc1nc(C2CCCO2)nc(C)c1-c1cc(Nc2ncc(C(F)(F)F)cc2F)ncc1OCCO (racemic)           pKi           8.02
 2  COCc1nc(C)c(-c2cc(Nc3ncc(-c4ccc(C#N)cc4)cc3Cl)ncc2OCCO)c(C)n1           pKi           9.20
 3  Cc1cc(CO)ccc1-c1cc(Nc2ncc(C(F)(F)F)cc2F)ncc1OCCO           pKi           8.04
 4  CCc1nc(C)c(-c2cc(Nc3ncc(C(F)(F)F)cc3Cl)ncc2OCCO)c(C)n1           pKi           8.65
 5  COCc1nc(C)c(-c2cc(Nc3ncc(-c4ccnc(C(F)(F)F)c4)cc3Cl)ncc2OCCO)c(C)n1           pKi           8.28
 6  COC(=O)c1ccc(-c2cc(Nc3ncc(C(F)(F)F)cc3F)ncc2OCCO)c(C)c1           pKi           7.06
 7  Cc1cc(Nc2ncc(OCCO)c(-c3c(Br)cnn3C)n2)ccc1Cl           pKi           8.21
 8  CCc1coc(-c2cnc(Nc3cc(-c4c(C)nc(COC)nc4C)c(OCCO)cn3)c(Cl)c2)n1           pKi           8.78
 9  Cc1nc(C)c(-c2cc(Nc3ccc(OC(F)(F)F)cn3)ncc2OCCO)c(C)n1           pKi           8.12
10  Cn1ncc(Cl)c1-c1cc(Nc2ncc(C(F)(F)F)cn2)c(F)cc1OCCO           pKi           8.95
11  COc1nc(C)c(-c2cc(Nc3ncc(C(F)(F)F)cc3Cl)ncc2OCCO)c(C)n1           pKi           8.44
12  Cn1ncc(Br)c1-c1nc(Nc2ccc(C(F)(F)F)cc2F)ncc1OCCO           pKi           9.12
13  Cc1nc(C(F)F)nc(C)c1-c1cc(Nc2ncc(C(F)(F)F)cc2Cl)ncc1OCCO           pKi           8.04
14  COCc1nc(C)c(-c2cc(Nc3ncc(-n4ccc(Cl)n4)cc3Cl)ncc2OCCO)c(C)n1           pKi           8.75
15  Cc1nc(COC2CCOCC2)nc(C)c1-c1cc(Nc2ncc(C(F)(F)F)cc2Cl)ncc1OCCO           pKi           8.45
16  CNC(=O)c1ccc(F)c(-c2cc(Nc3ncc(C(F)(F)F)cc3F)ncc2OCCO)c1F           pKi           8.34
17  O=C1NCc2c1cccc2-c1cc(Nc2ncc(C(F)(F)F)cc2F)ncc1OCCO           pKi           8.24
18  COCc1nc(C)c(-c2cc(Nc3ncc(C4CC(F)(F)C4)cc3Cl)ncc2OCCO)c(C)n1           pKi           8.68
19  Cn1ncc(Br)c1-c1nc(Nc2ccc(C(F)(F)F)cn2)ncc1OCCO           pKi           8.14
20  Cn1ncc(Br)c1-c1nc(Nc2ccc(C(F)(F)F)cn2)c(Cl)cc1OCCO           pKi           8.42
